# System: SK-OV-3 ovarian
# assay-remarks: NCI-60 one-dose screen, 48 h
# test-conditions: 10 µM unless noted
The panel holds about 83,000 compounds, 20% with a hit somewhere; the sample as a whole holds those more often. The source made the active and inactive calls. How the source made its calls: active means growth percent below 10; inactive means the rest.
Field 'call' accepts class 1 = active, class 0 = inactive

Check out these entries, answers already filled in.
>  <compound>
O=C(Oc1ccccc1)C(Br)C(Br)c1ccccc1 (centres undefined)

>  <classification>
class 0

$$$$
>  <compound>
O=C(CC1Sc2ccccc2NC1=O)NNc1cccc(Cl)c1Cl (centres undefined)

>  <classification>
class 0

$$$$
>  <compound>
COc1ccc(/C=C2/SC(=Nc3c(C)nn(-c4ccccc4)c3N)NC2=O)cc1

>  <classification>
class 0

$$$$
>  <compound>
COc1cc(/C=N/NC(=O)c2ccc(C(F)(F)F)nc2Nc2cc(Cl)ccc2C)cc(OC)c1OC

>  <classification>
class 0

$$$$
>  <compound>
Nc1ccc2c(c1)Cc1cc(Cl)c(Cl)cc1-2

>  <classification>
class 0

$$$$

Recorded test outcome, item `Cc1sc2nc(NCc3ccccc3)[nH]c(=O)c2c1C`
class 0

Recorded test outcome, item `Fc1ccc(-c2nn3c(-c4cc(C(F)(F)F)cc(C(F)(F)F)c4)nnc3s2)cc1`
class 1

Recorded test outcome, item `CCCCCCCCN(CCO)CCCCCCCC`
class 0

Recorded test outcome, item `c1ccc2nc(Cn3c[n+](Cc4ccc5ccccc5n4)c4ccccc43)ccc2c1`
class 0

Recorded test outcome, item C1CCC(C(CC2CCCCN2)C2CCCCC2)CC1 (centres undefined)
class 1

---

# Tested on: M14 melanoma
# assay-remarks: NCI-60 one-dose screen, 48 h (100 = growth as untreated, 0 = no growth, -100 = all killed)
# test-conditions: 10 µM unless noted
The panel holds about 83,000 compounds, 20% with a hit somewhere; the sample as a whole holds those more often.
Overview of recorded growth for various compounds
Lab book: enter the figure in %, no units written.

Some compounds with known growth results, for comparison:
>  <molecular-string>
CN(C)CCCNc1nn2c(=O)c3ccccc3nc2c2ccccc12

>  <growth (%)>
89.2

$$$$
>  <molecular-string>
COc1cnc2c(c1)C(=O)c1c-2n(CCCN2CCNCC2)c(=O)c2cc(F)ccc12

>  <growth (%)>
-56.7

$$$$
>  <molecular-string>
CCCCNCCCN(CCCC)CCCNCCCC

>  <growth (%)>
94.2

$$$$
>  <molecular-string>
N#Cc1c(NC(=O)c2ccco2)[n+]([O-])c2cc(Cl)c(Cl)cc2[n+]1[O-]

>  <growth (%)>
142

$$$$

Result for `COc1cc(/C(Cl)=C/C=C/C(=O)c2c(C)[n+]([O-])c3ccc(Cl)cc3[n+]2[O-])cc(OC)c1OC` , tested on M14 melanoma, growth: 43.4

Result for `CCSc1nc(-c2ccco2)n2nc(-c3ccco3)cc2n1` , tested on M14 melanoma, growth: 121

Result for `COC(=O)C1CCN(S(=O)(=O)c2ccc(-c3ccccc3)cc2)CC1` , tested on M14 melanoma, growth: 107

---

# Test system: LOX IMVI melanoma
# assay-remarks: NCI-60 one-dose screen, 48 h
# test-conditions: 10 µM unless noted
The panel holds about 83,000 compounds, 20% with a hit somewhere; the sample as a whole holds those more often. Active and inactive are the calls of the source. Rule for the calls: active = growth percent below 10; inactive = the rest.
Field 'call' accepts y = active, n = inactive

Check out these entries, answers already filled in.
>  <compound>
CN(C)c1ccc(-n2nc3ccccc3n2)cc1

>  <classification>
n

$$$$
>  <compound>
Cc1cc2c(cc1C)[n+](Cc1ccc3ccccc3n1)cn2Cc1ccc2ccccc2n1

>  <classification>
y

$$$$

Alright, here's another compound for you.
Recorded test outcome, item O=C(NC1CCS(=O)(=O)C1)c1ccc(C(=O)c2ccccc2)cc1 (stereo not drawn)
n

---

# Tested on: SNB-19 CNS
# assay-remarks: NCI-60 one-dose screen, 48 h (100 = growth as untreated, 0 = no growth, -100 = all killed)
# test-conditions: 10 µM unless noted
This is part of a sample that, as a whole, favours compounds with a hit. Of some 83,000 tested, about 20% had one in any assay. Calls of active or inactive are those of the source. Rule for the calls: active = growth percent below 10; inactive = the rest.
Overview of recorded growth for various molecules

Some molecules with known growth results, for comparison:
>  <molecule>
CN(C)c1ccc(-n2nc3ccccc3n2)cc1

>  <obs-value>
98.6% (inactive)

$$$$
>  <molecule>
CCCCCCCCCCCCCCCCCC1=NC(C)(CO)CO1 (stereo not drawn)

>  <obs-value>
101% (inactive)

$$$$
>  <molecule>
COc1ccc2c(c1)[n+](=O)c(/C=C/C(=O)c1cc(OC)c(OC)c(OC)c1)c(C)n2[O-]

>  <obs-value>
97% (inactive)

$$$$
>  <molecule>
COc1cc(C(=O)c2cc3c(cc2C)OCO3)cc(OC)c1OC

>  <obs-value>
50.7% (inactive)

$$$$
>  <molecule>
Cc1ccc(/C=C/C(=O)c2ccc(F)cc2)s1

>  <obs-value>
88% (inactive)

$$$$

molecule `COc1ccc2c3c(ccc2c1)C(=O)/C(=C\O)CC3` , growth observed: 103% (inactive)

molecule `COc1c(O)cc2c(c1CC=C(C)C)OC(=O)c1c(cc(O)c(CC=C(C)C)c1O)O2` , growth observed: 48.4% (inactive)

molecule COc1cc(/C=C/C(=O)CC(=O)/C=C/c2ccc(OC(=O)C3C4CC5CC(C4)CC3C5)c(OC)c2)ccc1OC(=O)C1C2CC3CC(C2)CC1C3 (stereo not drawn) , growth observed: 106% (inactive)

---

# System: T-47D breast
# assay-remarks: NCI-60 one-dose screen, 48 h
# test-conditions: 10 µM unless noted
Compounds without any hit were thinned out: in the full panel of roughly 83,000, 20% have a hit. Activity calls are given as the source filed them. The calls were made as follows: active = growth percent below 10; inactive = the rest.
Field 'call' accepts t (active), f (inactive)

>  <molecule>
COc1cc(/C=C/C(=O)C(C(=O)/C=C/c2ccc(OC(=O)CCNc3nnc(C)s3)c(OC)c2)C(=O)CCNc2nnc(C)s2)ccc1OC(=O)CCNc1nnc(C)s1

>  <classification>
f

$$$$
>  <molecule>
COc1cc(/C=N/NC(=O)c2ccc(C(F)(F)F)nc2Nc2cc(Cl)ccc2C)cc(OC)c1OC

>  <classification>
f

$$$$
>  <molecule>
COC(=O)C1CCN(S(=O)(=O)c2ccc(-c3ccccc3)cc2)CC1

>  <classification>
f

$$$$
>  <molecule>
C[C@H](C(=O)N[C@@H](Cc1ccc(-c2ccccc2)cc1)C(=O)NC1CC(C)(C)N(C)C(C)(C)C1)c1ccc(-c2ccccc2)c(F)c1

>  <classification>
t

$$$$
>  <molecule>
COc1cccc2c1C(=O)c1c(O)c3c(c(O)c1C2=O)C[C@@](O)(C(C)=O)C[C@@H]3O[C@H]1C[C@H](N)[C@H](O)[C@H](C)O1

>  <classification>
t

$$$$
>  <molecule>
CCCCCN(CCCCC)CCCNc1c2c(nc3ccc(Cl)cc13)CCCC2

>  <classification>
f

$$$$

Recorded test outcome, item CCCCCCCCCCCCCCCCCC1=NC(C)(CO)CO1 (stereo not given)
f

Recorded test outcome, item Cc1cn(C(C=O)OC(C=O)CO)c(=O)[nH]c1=O (stereo not given)
f

Recorded test outcome, item CCN1CC2=C(Nc3nc(SC)[nH]c(=O)c3C2c2cc(OC)c(OC)c(OC)c2)/C(=C/c2cc(OC)c(OC)c(OC)c2)C1 (stereo not given)
f

Recorded test outcome, item `c1ccc(CN=C(NCc2ccccc2)NCc2ccccc2)cc1`
f

Recorded test outcome, item `CCSc1ncc(Br)c(Sc2nc(N)nc3nc[nH]c23)n1`
f

Recorded test outcome, item `CCOC(=O)N1CCC(N=C2CSc3nnc(-c4cc(C(F)(F)F)cc(C(F)(F)F)c4)n3N2)CC1`
f

---

# Test system: SN12C renal
# assay-remarks: NCI-60 one-dose screen, 48 h (100 = growth as untreated, 0 = no growth, -100 = all killed)
# test-conditions: 10 µM unless noted
The panel holds about 83,000 compounds, 20% with a hit somewhere; the sample as a whole holds those more often.
quantity-kind: growth (%)
Lab book: enter the figure in %, no units written.

Some molecules with known growth results, for comparison:
>  <molecule>
Cc1nn2c(/C=C3/C(=O)Nc4cc(Cl)ccc43)c(-c3ccccc3)nc2s1

>  <experimental-target>
SN12C renal

>  <unit-info>
%

>  <growth>
-1.6

$$$$
>  <molecule>
COc1ccc2c(c1)sc1nc(-c3ccc(Br)cc3)cn12

>  <experimental-target>
SN12C renal

>  <unit-info>
%

>  <growth>
104

$$$$
>  <molecule>
Clc1ccc2nc(CI)c(CI)nc2c1

>  <experimental-target>
SN12C renal

>  <unit-info>
%

>  <growth>
59.4

$$$$
>  <molecule>
O=C(NC1CCS(=O)(=O)C1)c1ccc(C(=O)c2ccccc2)cc1 (configuration not stated)

>  <experimental-target>
SN12C renal

>  <unit-info>
%

>  <growth>
105

$$$$
>  <molecule>
O=C(C(=O)N1CCOCC1)c1cn(CCCn2cc(C(=O)C(=O)N3CCOCC3)c3ccccc32)c2ccccc12

>  <experimental-target>
SN12C renal

>  <unit-info>
%

>  <growth>
96.3

$$$$

molecule `Nc1ccc(N=Nc2ccccc2)cc1[N+](=O)[O-]` , growth observed: 84.6

molecule CO[C@H]1/C=C/O[C@@]2(C)Oc3c(C)c(O)c4c(O)c(c(/C=N/N5C(C)CN(Cc6ccc(C#N)cc6)CC5C)c(O)c4c3C2=O)NC(=O)/C(C)=C\C=C\[C@H](C)[C@H](O)[C@@H](C)[C@@H](O)[C@@H](C)[C@H](OC(C)=O)[C@@H]1C (some centres not stated) , growth observed: 39.4

molecule `COc1ccc2c(=O)c(OC)c(-c3cc(OC)c(OC)c(OC)c3)oc2c1` , growth observed: 77

molecule `Cc1ccc(N/N=C(/C(=O)c2ccc(Cl)cc2)c2nc(C)cc(=O)[nH]2)cc1` , growth observed: 100

molecule `Cc1cc(C(=O)Nc2ccc3cc(CN4CCOCC4)ccc3n2)c(C)n1-c1ccccc1` , growth observed: 73

molecule `CC(C)N(Cc1ccccc1)c1c(S)ssc1=S` , growth observed: 11

molecule `Cc1onc(-c2ccccc2Cl)c1C(=O)N[C@@H]1C(=O)N2[C@@H]1SC(C)(C)[C@@H]2C(=O)O` , growth observed: 103
